# Tested on: SF-295 CNS
# test_protocol: NCI tumour cell line growth inhibition, 48 h
endpoint_name: GI50

CN(C)CCCNC(=O)c1ccc2oc3cc4ccccc4c(=O)n3c2c1 = 33.7 µM

Give recorded GI50 with SF-295 CNS for the following compound: COc1cccc(Cn2c(-c3nonc3N)nc3ccccc32)c1
0.307 µM

API: value(readout= GI50, system= SF-295 CNS, query= COc1ccc(-c2nsc3c2NC(=O)CC3c2ccc(F)cc2)cc1 (stereo unspecified) )
4.08 µM

Recall the recorded GI50 for CCCCCCCCCCCCNC(=O)[C@H]1CSC(c2cc3ccccc3s2)N1 (stereo partly specified) with SF-295 CNS and state it.
3.52 µM

Observed GI50 on SF-295 CNS for Cc1cccc(-c2nn3c(c2-c2ccnc4ccc(C(N)=O)cc24)CCC3)n1 , please.
> 100 µM

Item N.N.N.N.O=NN1CCCCCC1(P(=O)([O-])[O-])P(=O)([O-])[O-].[Pt+4].[Pt+4] with SF-295 CNS - GI50?
> 100 µM
